Each entry below carries its reported hERG current change (%, negative = inhibition) at 10uM.
experimental system: human ether-à-go-go-related gene (hERG) potassium channel (human);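 note: peak tail current of the secondary pulse compared with the same well before compound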
assay name: primary screen, population patch clamp on CHO cells stably expressing hERG; higher = less effect of the substance
In all, about 310,000 compounds went through this assay and about 14,000 (4.5%) showed an effect of 50% or more. Effects have a minus sign here. For the sample, strong results were picked, then their nearest neighbours and some compounds at random.
The reply should read as a number followed by its unit.

Some compounds with recorded hERG current change (%, negative = inhibition) at 10uM:
[
  {
    "compound": "N#Cc1nc(Cc2cccc3ccccc23)oc1NCCN1CCCCC1",
    "experimental system": "human ether-à-go-go-related gene (hERG) potassium channel (human)",
    "recorded value": "-60.3%"
  },
  {
    "compound": "O=C(CN1CCCC1)Nc1ccccc1Sc1ccccc1",
    "experimental system": "human ether-à-go-go-related gene (hERG) potassium channel (human)",
    "recorded value": "-13.5%"
  },
  {
    "compound": "N#Cc1nc(-c2ccc(F)cc2)oc1NCCN1CCOCC1",
    "experimental system": "human ether-à-go-go-related gene (hERG) potassium channel (human)",
    "recorded value": "-0.823%"
  },
  {
    "compound": "N#Cc1nc(-c2ccc(OCc3ccccc3)cc2)oc1NCCCn1ccnc1",
    "experimental system": "human ether-à-go-go-related gene (hERG) potassium channel (human)",
    "recorded value": "-1.96%"
  },
  {
    "compound": "CC1CCN(CC(=O)Nc2ccccc2Sc2ccccc2)CC1",
    "experimental system": "human ether-à-go-go-related gene (hERG) potassium channel (human)",
    "recorded value": "-5.71%"
  }
]

-- ask Please give the measured hERG current change (%, negative = inhibition) at 10uM for this compound: O=C(CN1CCOCC1)Nc1ccccc1Sc1ccccc1
-- reply -31.3%

-- ask Can you share its hERG current change (%, negative = inhibition) at 10uM? I mean this compound: O=C(CN1CCCC1)Nc1ccccc1Sc1ccc(Cl)cc1
-- reply -31.1%

-- ask Give its hERG current change (%, negative = inhibition) at 10uM value. Item: O=C(CN1CCCCC1)Nc1cc(Cl)ccc1Oc1ccccc1
-- reply 12.5%

-- ask Given the compound Cc1ccc(NC(=O)NC(=O)CN2CCC(C(N)=O)CC2)c(C)c1 , what is its reported hERG current change (%, negative = inhibition) at 10uM?
-- reply 12%

---

experimental system: human ether-à-go-go-related gene (hERG) potassium channel (human, UniProt Q12809);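 note: peak tail current of the secondary pulse compared with the same well before compound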
Sequence (Q12809 whole entry, looked up): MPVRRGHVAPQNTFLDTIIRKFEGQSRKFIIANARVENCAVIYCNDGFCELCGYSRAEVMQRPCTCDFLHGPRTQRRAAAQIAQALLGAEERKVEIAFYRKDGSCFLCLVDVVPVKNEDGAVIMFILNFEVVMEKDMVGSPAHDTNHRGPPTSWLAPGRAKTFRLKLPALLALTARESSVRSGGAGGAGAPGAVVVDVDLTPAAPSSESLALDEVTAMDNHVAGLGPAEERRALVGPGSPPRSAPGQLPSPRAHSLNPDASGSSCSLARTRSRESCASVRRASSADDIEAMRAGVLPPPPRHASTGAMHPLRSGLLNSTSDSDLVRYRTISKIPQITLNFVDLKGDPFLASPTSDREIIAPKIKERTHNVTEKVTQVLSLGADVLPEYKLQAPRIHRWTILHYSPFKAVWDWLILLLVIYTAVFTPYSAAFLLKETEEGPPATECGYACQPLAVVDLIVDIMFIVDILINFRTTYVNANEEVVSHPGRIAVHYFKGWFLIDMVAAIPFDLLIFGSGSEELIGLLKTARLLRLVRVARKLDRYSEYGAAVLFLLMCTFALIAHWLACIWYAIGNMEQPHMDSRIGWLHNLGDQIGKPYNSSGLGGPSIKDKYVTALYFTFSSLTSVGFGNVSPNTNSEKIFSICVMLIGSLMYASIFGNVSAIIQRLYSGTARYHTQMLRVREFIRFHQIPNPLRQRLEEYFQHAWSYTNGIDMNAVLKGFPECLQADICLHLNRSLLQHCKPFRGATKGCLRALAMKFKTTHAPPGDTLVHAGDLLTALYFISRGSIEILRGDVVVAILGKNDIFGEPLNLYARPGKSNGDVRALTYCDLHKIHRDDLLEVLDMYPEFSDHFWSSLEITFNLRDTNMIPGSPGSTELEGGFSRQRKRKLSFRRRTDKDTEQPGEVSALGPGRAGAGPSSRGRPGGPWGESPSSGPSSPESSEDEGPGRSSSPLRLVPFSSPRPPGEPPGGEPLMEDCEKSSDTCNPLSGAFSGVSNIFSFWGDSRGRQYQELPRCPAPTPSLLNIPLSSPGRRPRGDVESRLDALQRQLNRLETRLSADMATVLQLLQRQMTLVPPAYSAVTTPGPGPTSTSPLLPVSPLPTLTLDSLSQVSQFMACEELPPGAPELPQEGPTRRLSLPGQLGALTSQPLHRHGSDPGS
assay name: primary screen, population patch clamp on CHO cells stably expressing hERG; higher = less effect of the substance
Procedure: Briefly, Chinese hamster ovary (CHO) cells stably expressing the hERG channel were dislodged from tissue culture flasks and dispensed into PPC plates. […] During the recording, background leak currents were estimated by a 100 ms step to -80 mV from an initial holding potential of -70 mV and subtracted from the subsequent current measurement. The campaign was conducted in two phases using slight differences in recording protocol. […]
The campaign covered roughly 310,000 compounds. About 14,000 (4.5%) showed an effect of 50% or more. The effect is printed as a negative number. The full list was thinned out, with strong results kept by preference.
A collection of compounds and their measured hERG current change (%, negative = inhibition) at 10uM
Report the value in % with no unit label.

Known results for compounds:
[
  {
    "compound": "CN(C)c1ccc(/C=C2\\CC3C4CC=C5CC(O)CCC5(C)C4CCC3(C)C2=O)cc1 (centres unmarked)",
    "experimental system": "human ether-à-go-go-related gene (hERG) potassium channel (human, UniProt Q12809)",
    "unit string": "%",
    "recorded value": 3.55
  },
  {
    "compound": "CCOC(=O)COc1ccc(S(=O)(=O)Nc2ccc3c(c2)OCCO3)cc1",
    "experimental system": "human ether-à-go-go-related gene (hERG) potassium channel (human, UniProt Q12809)",
    "unit string": "%",
    "recorded value": -3.24
  }
]

-- ask Item under review: Cc1nn(C)c(C)c1/C=C1/CC2C3CC=C4CC(O)CCC4(C)C3CCC2(C)C1=O (centres unmarked) . Reported hERG current change (%, negative = inhibition) at 10uM?
-- reply -8.03

-- ask What value of hERG current change (%, negative = inhibition) at 10uM has been reported for the following compound? Cn1c(=O)cc(OCCCC(=O)Nc2cccnc2)c2ccccc21
-- reply 0.169

-- ask hERG current change (%, negative = inhibition) at 10uM lookup needed for CCn1c2ccccc2c2cc(NC(=O)c3cccc(OC)c3)ccc21 , thanks.
-- reply 13.9

---

experimental system: human ether-à-go-go-related gene (hERG) potassium channel (human, UniProt Q12809);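 note: peak tail current of the secondary pulse compared with the same well before compound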
assay name: primary screen, population patch clamp on CHO cells stably expressing hERG; higher = less effect of the substance
The whole screen tested about 310,000 compounds, of which about 14,000 (4.5%) showed an effect of 50% or more. The effect is printed as a negative number. The entries come from a sample that favours strong results as a whole.
readout label: hERG current change (%, negative = inhibition) at 10uM
Number plus unit, in that order.

The cases that follow already have their hERG current change (%, negative = inhibition) at 10uM on record.
[
  {
    "compound": "CCC(C)(C)NC(=O)C1c2ccccc2Oc2ccccc21",
    "recorded value": "23%"
  },
  {
    "compound": "CC(C)(C)C(=O)Nc1nnc(SCC(=O)NCc2cccs2)s1",
    "recorded value": "16.3%"
  },
  {
    "compound": "COC(=O)CSc1nnc(SCc2ccc(Cl)cc2)s1",
    "recorded value": "-0.477%"
  },
  {
    "compound": "Cc1cccc(C)c1NC(=O)c1ccc(CN2CCc3ccccc3C2)cc1",
    "recorded value": "4.57%"
  },
  {
    "compound": "Cc1c(NS(=O)(=O)c2ccc(NC3CCCC3)c([N+](=O)[O-])c2)c(=O)n(-c2ccccc2)n1C",
    "recorded value": "-19.7%"
  },
  {
    "compound": "N/C(Cc1ccc([N+](=O)[O-])cc1)=N\\OC(=O)c1ccco1",
    "recorded value": "-26.8%"
  },
  {
    "compound": "O=C(CSc1nc2ccccc2[nH]1)NCCc1ccc(Cl)cc1",
    "recorded value": "-20.9%"
  },
  {
    "compound": "Cc1ccc(C(=O)NC2CCSC2=O)cc1 (stereo not drawn)",
    "recorded value": "7.89%"
  },
  {
    "compound": "CC(Oc1ccc(Cl)cc1Cl)C(=O)OCC(=O)c1c(N)n(C)c(=O)n(C)c1=O (stereo not drawn)",
    "recorded value": "-71.2%"
  },
  {
    "compound": "Cc1nc(Nc2cccc(C(C)O)c2)c2nnn(Cc3ccc(F)cc3)c2n1 (stereo not drawn)",
    "recorded value": "5.08%"
  }
]

-- ask Quick one: hERG current change (%, negative = inhibition) at 10uM of N/C(Cc1ccc(Cl)cc1)=N\OC(=O)Cc1ccc([N+](=O)[O-])cc1 ?
-- reply -4.32%

-- ask # input compound: COc1ccc(C/C(N)=N/OC(=O)C(c2ccccc2)c2ccccc2)cc1OC ; wanted: its hERG current change (%, negative = inhibition) at 10uM
-- reply -14.5%

-- ask // lookup hERG current change (%, negative = inhibition) at 10uM for O=C1Nc2ccc(S(=O)(=O)NCc3ccco3)c3cccc1c23
-- reply -16.2%

-- ask # hERG current change (%, negative = inhibition) at 10uM lookup, item COC(=O)C1C(=O)C=C(Nc2ccc(F)cc2F)CC1c1ccccc1 (stereo not drawn)
-- reply -16.9%

-- ask Field request: hERG current change (%, negative = inhibition) at 10uM | item: C[C@H](NC(=O)c1ccco1)C(=O)NC1CCCCCC1
-- reply -0.515%

-- ask Could you share which hERG current change (%, negative = inhibition) at 10uM value was measured for Cc1ccc(CC(=O)O/N=C(\N)Cc2ccc([N+](=O)[O-])cc2)cc1 ?
-- reply 0.827%

-- ask Dear colleague, I am looking for the recorded hERG current change (%, negative = inhibition) at 10uM of the following compound: CC1CN(C(=O)COC(=O)c2c(Cl)cccc2Cl)CC(C)O1 (stereo not drawn)
-- reply 6.73%

-- ask Fill in: hERG current change (%, negative = inhibition) at 10uM of CC(=O)NC(CC(=O)Nc1cccc(S(=O)(=O)N2CCCCC2)c1)c1ccccc1 (stereo not drawn) is ___
-- reply -1.76%

---

This section presents molecules with their documented hERG current change (%, negative = inhibition) at 10uM values.
experimental system: human ether-à-go-go-related gene (hERG) potassium channel (human, UniProt Q12809);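 note: peak tail current of the secondary pulse compared with the same well before compound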
assay name: primary screen, population patch clamp on CHO cells stably expressing hERG; higher = less effect of the substance
Screen size: about 310,000 compounds; about 14,000 (4.5%) showed an effect of 50% or more. The effect is printed as a negative number. What follows is part of a selection rich in strong results, with near analogues and random picks from the rest.
Give the value in % but do not write % after it.

[
  {
    "molecule": "CCN(CC(=O)N1CCN(C)CC1)S(=O)(=O)c1ccc(Cl)cc1",
    "recorded value": -5.94
  },
  {
    "molecule": "CCCn1c(N)c(C(=O)COC(=O)CNC(=O)c2ccc(C)c(C)c2)c(=O)n(C)c1=O",
    "recorded value": -78.1
  },
  {
    "molecule": "CC(C)Cn1c(N)c(C(=O)COC(=O)c2ccc(F)cc2)c(=O)n(C)c1=O",
    "recorded value": 17.1
  }
]

Moving on to the next molecule.
-- ask Would you kindly share the measured hERG current change (%, negative = inhibition) at 10uM for O=C(NNC(=O)c1ccc(S(=O)(=O)N2CCOCC2)cc1)c1ccccc1 ?
-- reply 17.5

# credit: paper PMC4336329
